- target: Sodium channel protein type 5 subunit alpha (Homo sapiens, UniProt Q14524)
- Sequence (Q14524 whole entry): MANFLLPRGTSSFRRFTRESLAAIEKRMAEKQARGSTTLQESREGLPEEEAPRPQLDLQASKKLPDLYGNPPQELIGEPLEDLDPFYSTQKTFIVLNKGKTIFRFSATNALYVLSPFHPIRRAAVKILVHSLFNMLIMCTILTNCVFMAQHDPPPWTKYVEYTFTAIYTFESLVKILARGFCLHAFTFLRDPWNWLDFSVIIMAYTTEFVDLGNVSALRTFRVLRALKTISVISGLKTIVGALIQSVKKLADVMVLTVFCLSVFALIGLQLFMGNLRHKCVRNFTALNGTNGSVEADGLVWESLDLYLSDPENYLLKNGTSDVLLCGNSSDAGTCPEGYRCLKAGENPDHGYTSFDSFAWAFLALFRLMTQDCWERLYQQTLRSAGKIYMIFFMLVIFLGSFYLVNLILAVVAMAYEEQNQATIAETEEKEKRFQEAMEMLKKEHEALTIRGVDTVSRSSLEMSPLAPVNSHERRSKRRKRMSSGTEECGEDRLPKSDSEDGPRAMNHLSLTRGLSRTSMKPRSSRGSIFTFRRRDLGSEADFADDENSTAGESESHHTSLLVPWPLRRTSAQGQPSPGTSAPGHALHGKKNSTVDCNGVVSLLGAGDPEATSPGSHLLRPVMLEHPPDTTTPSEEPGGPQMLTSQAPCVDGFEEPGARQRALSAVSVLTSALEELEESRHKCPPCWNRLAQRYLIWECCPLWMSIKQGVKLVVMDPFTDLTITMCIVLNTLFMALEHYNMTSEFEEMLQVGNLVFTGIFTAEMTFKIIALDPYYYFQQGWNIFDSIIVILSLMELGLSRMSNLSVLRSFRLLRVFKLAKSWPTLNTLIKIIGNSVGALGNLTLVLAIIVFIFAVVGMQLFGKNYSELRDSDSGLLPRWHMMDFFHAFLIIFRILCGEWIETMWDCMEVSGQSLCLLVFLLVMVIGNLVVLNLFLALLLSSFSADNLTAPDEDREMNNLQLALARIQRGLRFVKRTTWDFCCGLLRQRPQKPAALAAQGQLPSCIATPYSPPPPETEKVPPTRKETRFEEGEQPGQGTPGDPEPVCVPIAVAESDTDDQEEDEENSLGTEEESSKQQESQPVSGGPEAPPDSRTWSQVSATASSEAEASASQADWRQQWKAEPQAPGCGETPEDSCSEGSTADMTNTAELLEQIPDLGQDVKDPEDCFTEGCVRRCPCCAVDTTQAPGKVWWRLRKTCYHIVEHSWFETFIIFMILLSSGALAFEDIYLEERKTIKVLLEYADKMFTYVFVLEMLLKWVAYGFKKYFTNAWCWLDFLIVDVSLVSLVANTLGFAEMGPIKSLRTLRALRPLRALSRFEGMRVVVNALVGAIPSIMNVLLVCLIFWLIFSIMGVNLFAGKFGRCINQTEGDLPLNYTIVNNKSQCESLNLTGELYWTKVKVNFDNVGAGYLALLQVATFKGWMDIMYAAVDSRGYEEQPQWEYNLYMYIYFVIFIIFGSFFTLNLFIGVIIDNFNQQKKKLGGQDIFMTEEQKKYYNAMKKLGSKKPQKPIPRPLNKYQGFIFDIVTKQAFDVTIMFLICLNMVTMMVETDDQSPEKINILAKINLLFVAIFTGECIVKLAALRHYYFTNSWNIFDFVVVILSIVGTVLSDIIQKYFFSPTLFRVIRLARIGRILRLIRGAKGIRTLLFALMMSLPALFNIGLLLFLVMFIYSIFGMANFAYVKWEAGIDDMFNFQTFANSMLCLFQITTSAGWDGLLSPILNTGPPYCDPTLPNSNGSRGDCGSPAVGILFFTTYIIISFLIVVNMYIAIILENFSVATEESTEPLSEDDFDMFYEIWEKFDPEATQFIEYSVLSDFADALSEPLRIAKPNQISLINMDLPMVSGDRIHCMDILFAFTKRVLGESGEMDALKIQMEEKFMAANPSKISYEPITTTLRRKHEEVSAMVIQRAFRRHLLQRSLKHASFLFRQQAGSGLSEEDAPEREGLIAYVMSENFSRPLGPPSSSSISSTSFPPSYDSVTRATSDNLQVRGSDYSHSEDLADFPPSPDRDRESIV
- procedure summary: Electrophysiological Assay: Patch voltage clamp electrophysiology allows for the direct measurement and quantification of block of voltage-gated sodium channels (NaV's), and allows the determination of the time- and voltage-dependence of block which has been interpreted as differential binding to the resting, open, and inactivated states of the sodium channel (Hille, B., Journal of General …
pIC50: −log10 of the molar value.
endpoint: pIC50

INSERT INTO assay_data (structure, target, numeric_value) VALUES
  ('CN(C)S(=O)(=O)NC(=O)c1cc(Cl)c(OCC23CC4CC(CC(C4)C2)C3)cc1F', 'Sodium channel protein type 5 subunit alpha (Homo sapiens, UniProt Q14524)', 6.11),
  ('O=C(NS(=O)(=O)N1CCC1)c1cc(C2CC2)c(OCC23CC4(F)CC(F)(CC(F)(C4)C2)C3)cc1F', 'Sodium channel protein type 5 subunit alpha (Homo sapiens, UniProt Q14524)', 6.02),
  ('O=C(NS(=O)(=O)N1CCOCC1)c1cc(C2CC2)c(OCC23CC4CC(CC(C4)C2)C3)cc1F', 'Sodium channel protein type 5 subunit alpha (Homo sapiens, UniProt Q14524)', 7.85),
  ('COCCS(=O)(=O)NC(=O)c1cc(C2CC2)c(OCC23CC4CC(CC(C4)C2)C3)cc1F', 'Sodium channel protein type 5 subunit alpha (Homo sapiens, UniProt Q14524)', 7.00),
  ('O=C(NS(=O)(=O)N1CCC1)c1cc(C2CC2)c(OCC2(C(F)(F)F)CCCCC2)cc1F', 'Sodium channel protein type 5 subunit alpha (Homo sapiens, UniProt Q14524)', 6.46),
  ('CS(=O)(=O)NC(=O)c1cc(C2CC2)c(OCC23CC4CC(C2)C(F)(F)C(C4)C3)cc1F', 'Sodium channel protein type 5 subunit alpha (Homo sapiens, UniProt Q14524)', 6.15),
  ('CC1(C)CCc2cc(OCc3cc(F)c(C(=O)NS(=O)(=O)N4CCC4)cc3Cl)ccc2O1', 'Sodium channel protein type 5 subunit alpha (Homo sapiens, UniProt Q14524)', 6.19);
